read-out: E-selectin (Homo sapiens) (UniProt P16581); assay: BSK_3C_Eselectin: BioMAP Diversity Plus: 3C Assay for Eselectin Biomarker Activity (AID 2283015); conditions: primary human endothelial cells (HUVEC); actives raise or lower the signal
Sequence (P16581 whole entry, looked up): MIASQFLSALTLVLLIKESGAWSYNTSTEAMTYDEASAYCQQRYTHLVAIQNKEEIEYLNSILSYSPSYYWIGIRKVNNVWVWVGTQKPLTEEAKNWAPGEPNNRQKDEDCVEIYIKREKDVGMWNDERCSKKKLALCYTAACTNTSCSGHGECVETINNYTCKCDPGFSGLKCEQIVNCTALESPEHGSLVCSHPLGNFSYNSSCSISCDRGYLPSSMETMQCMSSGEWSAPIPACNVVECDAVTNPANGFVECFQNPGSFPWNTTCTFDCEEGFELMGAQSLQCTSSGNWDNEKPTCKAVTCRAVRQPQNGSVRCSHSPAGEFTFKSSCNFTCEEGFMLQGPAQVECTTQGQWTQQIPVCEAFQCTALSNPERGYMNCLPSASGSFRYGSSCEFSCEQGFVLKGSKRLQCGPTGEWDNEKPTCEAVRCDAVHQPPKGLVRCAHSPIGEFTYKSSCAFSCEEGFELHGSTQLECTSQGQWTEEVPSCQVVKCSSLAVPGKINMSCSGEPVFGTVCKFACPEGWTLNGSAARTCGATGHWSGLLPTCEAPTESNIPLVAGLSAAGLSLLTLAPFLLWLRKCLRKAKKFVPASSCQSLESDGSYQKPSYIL
The source made the active and inactive calls. Rule for the calls: active = hit-call score of the fitted dose curve at least 0.9, where 1 is the maximum; inactive = score below 0.9.
Outcomes: 1.0 = active, 0.0 = inactive

- CC1(C(=O)Nc2ccc(O)c(Cl)c2Cl)CCCCC1: 0.0
- N#CSCSC#N: 1.0
- CCCCOC(=O)[C@@H](C)Oc1ccc(Oc2ccc(C#N)cc2F)cc1: 0.0
- CCc1cnc(C2=NC(C)(C(C)C)C(=O)N2)c(C(=O)O)c1 (centres undefined): 0.0

---

read-out: Human Leukocyte Antigen - DR isotype (HLADR), HLA-DRA (gene 3122); assay: BSK_BE3C_HLADR: BioMAP Diversity Plus: BE3C Assay for Human Leukocyte Antigen - DR isotype (HLADR) Biomarker Activity (AID 2283032); conditions: primary human bronchial epithelial cells; actives raise or lower the signal
Calls of active or inactive are those of the source. How the source made its calls: active means hit-call score of the fitted dose curve at least 0.9, where 1 is the maximum; inactive means score below 0.9.
measured.property: AC50

* CCOP(=O)(NC(C)C)Oc1ccc(SC)c(C)c1 (stereo not given) | inactive
* CCC(CC)Nc1c([N+](=O)[O-])cc(C)c(C)c1[N+](=O)[O-] | inactive
* CCOP(=S)(OCC)Oc1cc(C)nc(C(C)C)n1 | inactive
* C=C(C)[C@H]1Cc2c(ccc3c2O[C@@H]2COc4cc(OC)c(OC)cc4[C@@H]2C3=O)O1 | 6.33 µM (active)
* C[Si](Cn1cncn1)(c1ccc(F)cc1)c1ccc(F)cc1 | inactive
* CCOP(=S)(OCC)OC(Cl)C(Cl)(Cl)Cl (stereo not given) | inactive
* CCCCSP(=O)(SCCCC)SCCCC | 20 µM (active)
* CC(=NC#N)N(C)Cc1ccc(Cl)nc1 | inactive
* CC(C)N(C(=O)SCC(Cl)=C(Cl)Cl)C(C)C | inactive
* CCc1cccc(C)c1N(C(=O)CCl)C(C)COC (stereo not given) | inactive
* CCNc1nc(Cl)nc(NC(C)(C)C#N)n1 | inactive
* FC(F)C(F)(F)OCC(Cn1cncn1)c1ccc(Cl)cc1Cl (stereo not given) | 29.8 µM (active)
* CCOP(=S)(OCC)Oc1ccc2c(C)c(Cl)c(=O)oc2c1 | inactive
* CN(C)[C@@H]1C(=O)C(C(N)=O)=C(O)[C@@]2(O)C(=O)C3=C(O)c4c(O)cccc4[C@@](C)(O)[C@H]3[C@H](O)[C@@H]12 | inactive
* Cc1cc(C2CC2)nc(Nc2ccccc2)n1 | 5.17 µM (active)
* Nc1c(Cl)cc([N+](=O)[O-])cc1Cl | 12.6 µM (active)
* COc1cc(OC)nc(Sc2cccc(Cl)c2C(=O)O)n1 | inactive
* CC[C@H](C)[C@H]1O[C@]2(C=C[C@@H]1C)C[C@@H]1C[C@@H](C/C=C(\C)[C@@H](O[C@H]3C[C@H](OC)[C@@H](O[C@H]4C[C@H](OC)[C@@H](NC)[C@H](C)O4)[C@H](C)O3)[C@@H](C)/C=C/C=C3\CO[C@@H]4[C@H](O)C(C)=C[C@@H](C(=O)O1)[C@]34O)O2 | 3.98 µM (active)
* CC(Oc1cccc(Cl)c1)C(=O)O (stereo not given) | inactive
* O=C(O)c1cc(Oc2ccc(C(F)(F)F)cc2Cl)ccc1[N+](=O)[O-] | inactive

Cited source: PubChem BioAssay (EPA / NIEHS)
